- Test system: CCRF-CEM leukemia
- measurement description: NCI tumour cell line growth inhibition, 48 h
attribute measured: GI50

Recorded GI50, per entry:
>>> value("CNc1nc(C)c(-c2nc(Nc3cccc(S(N)(=O)=O)c3)ncc2F)s1")
"35.8 nM"
>>> value("CC1=C(C(=O)Nc2ccc3[nH]ncc3c2)C(c2ccc(F)cc2)NC(=O)N1 (stereo not drawn)")
"> 25000 nM"

# ---- query compound ----
Dear colleague, I am looking for the recorded GI50 of the following compound: COc1cc2c(cc1OCCCOC1=C=C=C(c3ccc4c(c3)c3cc(-c5ccc(OCCCOc6cc7c(cc6OC)C(=O)N6CCC[C@H]6C=N7)cc5)ccc3n4S(=O)(=O)c3ccc(C)cc3)C=C1)N=C[C@@H]1CCCN1C2=O 190 nM

----------
- System: ACHN renal
- measurement description: NCI tumour cell line growth inhibition, 48 h
attribute measured: TGI (µM)
Just the number please, in µM, no unit attached.

Recorded TGI, per entry:
>>> value("C=C(C)C(=O)OC1CC2(C)OC2CC(OC(C)=O)/C(C)=C/C2OC(=O)C(=C)C21 (stereo unspecified)")
3.34
>>> value("NS(=O)(=O)c1ccc(C2C3=C(CCCC3=O)OC3=C2C(=O)c2ccccc2C3=O)cc1 (stereo unspecified)")
2.53

# ---- query compound ----
# query: TGI | item OCCCCC#Cc1ccccc1C#Cc1ccccc1F | system: ACHN renal 53.6

----------
- System: UACC-62 melanoma
- measurement description: NCI tumour cell line growth inhibition, 48 h
attribute measured: TGI (µM)
Just the number please, in µM, no unit attached.

>>> value("CC/C=C\\C/C=C\\C[C@H](O)C/C=C1/C(=O)C=C[C@H]1C/C=C\\CCC(=O)OC")
7.16
>>> value("NC(N)=N/N=C/c1c(-c2cccs2)nc2sccn12")
28.3
>>> value("O=C1c2ccccc2-c2nccc3cc(Cl)nc1c23")
13

# query: TGI | item NCCNCCCCCCNC(=O)c1cccc2cc3ccccc3nc12 | system: UACC-62 melanoma 4.64

----------
- Test system: A549 NSCLC
- measurement description: NCI tumour cell line growth inhibition, 48 h; in the data active = GI50 below about 0.43 µM; inactive = the rest
Pick from active, inactive when you respond.

Some solved entries appear below for comparison.
>>> class_assignment("Cc1nc2cncc(C#Cc3cncc(C(=O)Nc4ccc(CN5CCN(C)CC5)c(C(F)(F)F)c4)c3)c2nc1C")
"inactive"
>>> class_assignment("O=S1(=O)N(Cc2ccccc2)[C@@H](Cc2ccccc2)C2O[C@H]2[C@H](Cc2ccccc2)N1Cc1ccccc1 (stereo not given in full)")
"inactive"
>>> class_assignment("CC(=N\\O)/C(C)=N/O.CC(=N\\O)/C(C)=N/O.CC(=N\\O)/C(C)=N/O.CC(=N\\O)/C(C)=N/O.[Cu].[Cu]")
"inactive"

Recorded test outcome, item CCCCCCCCCCCCCC[P+](CCCCCC)(CCCCCC)CCCCCC active

Recorded test outcome, item O=c1[nH]cnc2c1nnn2C1OC(CO)C(O)C1O (stereo not given) inactive

----------
# TGI per record follows
- Tested on: RXF 393 renal
- measurement description: NCI tumour cell line growth inhibition, 48 h

>>> value("CC(NC(=O)OCc1ccccc1)NC(=O)C(CC(=O)OC(C)(C)C)NC(=O)OC(C)(C)C (stereo not given)")
"> 100 µM"
>>> value("ON(CCc1ccncc1)Cc1ccccc1")
"> 100 µM"
>>> value("COc1ccc(Oc2nc3ccc(C(F)(F)F)cc3nc2-c2ccccc2)cc1")
"> 100 µM"
>>> value("COC(=O)c1nc(-c2ccc3c(n2)C(=O)C(N)=C(OC)C3=O)c(N)c(-c2ccc(OC)c(OC)c2O)c1C")
"3.55 µM"

# ---- query molecule ----
# query: TGI | item Cc1ccc(C)c(COCCOCn2cc(Br)c(N)nc2=O)c1 | system: RXF 393 renal > 100 µM

----------
- System: OVCAR-4 ovarian
- measurement description: NCI tumour cell line growth inhibition, 48 h
# TGI per record follows
Just the number please, in µM, no unit attached.

Recorded TGI, per entry:
>>> value("O=C(c1ccccc1)c1c(C(F)(F)F)n([O-])c2cc(Cl)c(Cl)cc2[n+]1=O")
3.12
>>> value("OCc1cccc(-c2ccc3ncc(-c4nc(NC5CC5)ncc4F)n3c2)c1")
1.77

Dear colleague, I am looking for the recorded TGI of the following compound: CC1CC[C@@]2(OC1)O[C@H]1C[C@H]3[C@@H]4CC[C@H]5C[C@@H](OC6OC(CO)C(OC7OC(CO)C(OC8OC(CO)C(O)C(OC9OC(C)C(OC%10OC(C)C(O)C(O)C%10O)C(O)C9O)C8OC8OCC(O)C(O)C8O)C(O)C7O)C(O)C6O)CC[C@]5(C)[C@H]4CC(=O)[C@]3(C)[C@H]1[C@@H]2C (stereo partly drawn) 32.7

Dear colleague, I am looking for the recorded TGI of the following compound: C=C1C(=O)O[C@H]2[C@H]1CC/C(CNS(=O)(=O)c1ccc3ccccc3c1)=C\CC[C@@]1(C)O[C@@H]21 18.7

----------
# TGI per record follows
- Test system: OVCAR-8 ovarian
- measurement description: NCI tumour cell line growth inhibition, 48 h

Recorded TGI, per entry:
>>> value("COc1ccc2c(c1)nc1n2C(N)=Nc2ccccc2S1")
"> 82.1 µM"
>>> value("CCOC(=O)c1c2c(n3ccc(NC(=O)OC(C)(C)C)cc13)C(=O)c1ncccc1C2=O")
"2.09 µM"

Dear colleague, I am looking for the recorded TGI of the following compound: NC1C2C(CC(=O)O)OCC=C3CN4CCC1(C(=O)C(=O)O)C4CC32 (stereo unspecified) > 100 µM

Dear colleague, I am looking for the recorded TGI of the following compound: CCOC(=O)/C(C#N)=C/c1ccc(CO)o1 > 100 µM

----------
- Test system: KM12 colon
- measurement description: NCI tumour cell line growth inhibition, 48 h; in the data active = GI50 below about 0.43 µM; inactive = the rest
Pick from active, inactive when you respond.

Some solved entries appear below for comparison.
>>> class_assignment("Nc1nc2c(c3ncccc13)C(c1ccc(Cl)c(Cl)c1)Cc1ncccc1-2 (stereo unspecified)")
"inactive"
>>> class_assignment("OCCCCC#Cc1ccccc1C#Cc1ccccc1F")
"inactive"
>>> class_assignment("OCc1cccc(-c2ccc3ncc(-c4nc(NC5CC5)ncc4F)n3c2)c1")
"active"
>>> class_assignment("CN(C)/C=C/c1nnnn1-c1ccc(Cl)cc1")
"inactive"
>>> class_assignment("CN(C)C(=S)NN=C(c1ccccn1)c1ccccn1")
"active"

Now for another entry.
Recorded test outcome, item Cc1[nH]c(C(=O)Nc2ccc(C(=O)N3CCNCC3)cc2OC(C)C)c(Cl)c1Cl inactive

----------
- System: NCI-H23 lung
- measurement description: NCI tumour cell line growth inhibition, 48 h
Where a SMILES comes first, the peptide text is derived from it. The star is where a group is joined. Boc = CC(C)(C)OC(=O)*
# TGI per record follows
Just the number please, in µM, no unit attached.

>>> value("NS(=O)(=O)c1ccc(Nc2c3ccccc3nc3c(C(=O)NCCCN(CCO)CCO)cccc23)cc1")
53.8
>>> value("COC(=O)C(Cc1c[nH]c2ccccc12)NC(=O)C(Cc1c[nH]c2ccccc12)NC(=O)C(Cc1c[nH]c2ccccc12)NC(=O)C(Cc1c[nH]c2ccccc12)NC(=O)OC(C)(C)C (stereo not given) (Boc-WWWW-OMe; configuration not given here)")
92.3
>>> value("Cc1ccc2c[c]1[Hg][CH2]COS2(=O)=O")
49.2

Dear colleague, I am looking for the recorded TGI of the following molecule: COc1ccccc1/C=C1\CCC(CNc2ccc(Cl)cc2)C1=O (stereo not given) 20.8

Dear colleague, I am looking for the recorded TGI of the following molecule: Cc1cc2c(cc1C)[n+](=O)c(C(=O)/C=C/c1ccc(Cl)cc1)c(C)n2[O-] 65.6

Dear colleague, I am looking for the recorded TGI of the following molecule: CCOC(=O)c1c2c(n3ccc(NC(=O)OC(C)(C)C)cc13)C(=O)c1ncccc1C2=O 0.669

----------
- Test system: EKVX NSCLC
- measurement description: NCI tumour cell line growth inhibition, 48 h
# TGI per record follows

Recorded TGI, per entry:
>>> value("O=c1[nH]c(-c2ccccc2)nc2ccc(Cl)cc12")
"> 100 µM"
>>> value("CN(C)CCCNc1c2ccccc2nc2cccc([N+](=O)[O-])c12")
"0.448 µM"

# ---- query compound ----
Dear colleague, I am looking for the recorded TGI of the following compound: C=C1C(=O)O[C@H]2[C@H]1CC/C(CNC(=O)/C=C/c1cccc(OC)c1)=C\CC[C@@]1(C)O[C@@H]21 5.62 µM

----------
- System: ACHN renal
- measurement description: NCI tumour cell line growth inhibition, 48 h
attribute measured: TGI

Recorded TGI, per entry:
>>> value("CCCCCCCCCCCCCC[P+](CCCCCC)(CCCCCC)CCCCCC")
"1.51 µM"
>>> value("c1cc(C[S+]2CCCC2)ccc1C[S+]1CCCC1")
"> 100 µM"
>>> value("Cn1c(-c2ccc[se]2)ccc1-c1ccc(CO)[se]1")
"> 71.5 µM"
>>> value("N#Cc1c2ccccc2c2n1-c1ccccc1OC(c1ccccc1)C2=O (stereo unspecified)")
"> 100 µM"
>>> value("C[C@]12CC/C(=N\\N)C[C@@H]1CC[C@@H]1[C@@H]2CC[C@]2(C)/C(=N/N)CC[C@@H]12")
"> 100 µM"

# ---- query molecule ----
Dear colleague, I am looking for the recorded TGI of the following molecule: Oc1ccc2c(c1)CC[N+]1=C2CCC2CCCC21 (stereo unspecified) > 100 µM
